- Test system: classical complement pathway
- Assay Details: CH50 assay, hemolysis of sensitized human red blood cells by zymosan-activated cat serum
- Assay type: cell-based
- Condition Notes: Felis catus, Erythrocyte, 1 hour at 37° C., OD 405 nm, read-out: IC50, protection of human red blood cells from complement attack
Readout Name: IC50

Item: CC(=O)Oc1ccc(-c2ccc(OC(C)=O)c(C(=O)O)c2)cc1C(=O)O Test system: classical complement pathway Read-out: IC50 Value: ?
168 nM
